Tested on: Lin^−/CD34^+/CD38^−/CD123^+ cancer stem cells in KG1a cells
Assay: Immunophenotypic quantification of the leukaemic stem cell compartment in KG1a cells
Type: cell-based, human
Conditions: KG1a cells
endpointLabel: low concentration at which the selective reduction of cancer stem cells was still observed

Worked examples follow.
[[record]]
molecule = "CCCCCOC(=O)[C@H](C)NP(=O)(OC[C@H]1O[C@@H](n2cc(F)c(=O)[nH]c2=O)CC1O)Oc1cccc2ccccc12 (stereo partly drawn)"
result = "approximately 8×10^−8 M"

[[record]]
molecule = "C[C@H](NP(=O)(OC[C@H]1O[C@@H](n2cnc3c(N)nc(Cl)nc32)[C@H](F)C1O)Oc1cccc2ccccc12)C(=O)OCC(C)(C)C (stereo partly drawn)"
result = "approximately 6×10^−8 M"

[[record]]
molecule = "C[C@H](NP(=O)(OC[C@H]1O[C@@H](n2cc(F)c(=O)[nH]c2=O)CC1O)Oc1ccccc1)C(=O)OCc1ccccc1 (stereo partly drawn)"
result = "approximately 8×10^−8 M"

[[record]]
molecule = "Nc1nc(Cl)nc2c1ncn2[C@@H]1O[C@H](CO)[C@@H](O)[C@@H]1F"
result = "approximately 6×10^−8 M"

[[record]]
molecule = "C[C@H](NP(=O)(Oc1ccccc1)OC1C[C@H](n2cnc3c(N)nc(Cl)nc32)O[C@@H]1CO)C(=O)OCc1ccccc1 (stereo partly drawn)"
result = "approximately 6×10^−8 M"

[[record]]
molecule = "C[C@H](NP(=O)(OC[C@H]1O[C@@H](n2cc(F)c(=O)[nH]c2=O)CC1O)Oc1cccc2ccccc12)C(=O)OCc1ccccc1 (single isomer, unassigned) [CPF-373 (Iso B)]"
result = "approximately 8×10^−8 M"


Fill in low concentration at which the selective reduction of cancer stem cells was still observed for each of the 3 molecules listed.
1. C[C@H](NP(=O)(OC[C@H]1O[C@@H](n2cnc3c(N)nc(Cl)nc32)[C@H](F)C1O)Oc1ccccc1)C(=O)OCc1ccccc1 (stereo partly drawn)
2. CCCCCOC(=O)[C@@H](C)NP(=O)(OC[C@H]1O[C@@H](n2cnc3c(N)nc(Cl)nc32)[C@H](F)C1O)Oc1cccc2ccccc12 (stereo partly drawn)
3. C[C@H](NP(=O)(OC[C@H]1O[C@@H](n2cc(F)c(=O)[nH]c2=O)CC1O)Oc1cccc2ccccc12)C(=O)OCc1ccccc1 (single isomer, unassigned) [CPF-373 (Iso A)]

## Result
1: approximately 6×10^−8 M; 2: approximately 6×10^−8 M; 3: approximately 8×10^−8 M
